tested_target: human PPAR α (Homo sapiens)
Construct: human PPAR 167-468 (PPAR α)
Sequence (Q07869 167-468): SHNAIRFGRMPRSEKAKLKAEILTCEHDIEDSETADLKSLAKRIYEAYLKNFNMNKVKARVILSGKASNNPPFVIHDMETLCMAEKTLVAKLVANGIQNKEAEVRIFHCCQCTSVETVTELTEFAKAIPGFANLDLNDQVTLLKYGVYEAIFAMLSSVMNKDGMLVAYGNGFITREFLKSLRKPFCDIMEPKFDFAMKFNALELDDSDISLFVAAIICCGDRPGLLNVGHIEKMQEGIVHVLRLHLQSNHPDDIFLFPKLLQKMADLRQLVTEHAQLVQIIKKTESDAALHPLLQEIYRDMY
assay_explanation: Transcriptional activity, GAL4-PPAR LBD chimera / PLAP reporter in CV-1 cells
assay_conditions: GAL4-PPARα LBD, PLAP activity 24 hours after addition
observed_property: EC50 (nM)
Express your answer in nM, writing the number without its unit.

A selection of reference data follows.
{"columns": ["compound_string", "EC50, nM"],
 "data": [
  ["COc1ccc(-c2cccc(CC(=O)O)c2)cc1C#CCOc1ccc(C(F)(F)F)cc1", 1820],
  ["CCCOc1ccc(-c2cc(C(=O)O)ccc2Cl)cc1CNC(=O)c1ccc(C(F)(F)F)cc1F", 538],
  ["CCOc1ccc(-c2cccc(CC(=O)O)c2)cc1CNC(=O)OCc1ccc(CC)cc1", 3]
]}

Given the entry COc1ccc(-c2cccc(CC(=O)O)c2)cc1/C(C)=N/OCc1ccc(C(F)(F)F)cc1 , report its measured EC50.
719
